# measured.on: acetylcholinesterase (Rattus norvegicus)
# Construct: corpora striata dissected free, weighed and homogenized in 19 volumes; from tissue; host or cells: corpora striata of male Wistar rats, crude homogenate
# Sequence (P37136 32-614): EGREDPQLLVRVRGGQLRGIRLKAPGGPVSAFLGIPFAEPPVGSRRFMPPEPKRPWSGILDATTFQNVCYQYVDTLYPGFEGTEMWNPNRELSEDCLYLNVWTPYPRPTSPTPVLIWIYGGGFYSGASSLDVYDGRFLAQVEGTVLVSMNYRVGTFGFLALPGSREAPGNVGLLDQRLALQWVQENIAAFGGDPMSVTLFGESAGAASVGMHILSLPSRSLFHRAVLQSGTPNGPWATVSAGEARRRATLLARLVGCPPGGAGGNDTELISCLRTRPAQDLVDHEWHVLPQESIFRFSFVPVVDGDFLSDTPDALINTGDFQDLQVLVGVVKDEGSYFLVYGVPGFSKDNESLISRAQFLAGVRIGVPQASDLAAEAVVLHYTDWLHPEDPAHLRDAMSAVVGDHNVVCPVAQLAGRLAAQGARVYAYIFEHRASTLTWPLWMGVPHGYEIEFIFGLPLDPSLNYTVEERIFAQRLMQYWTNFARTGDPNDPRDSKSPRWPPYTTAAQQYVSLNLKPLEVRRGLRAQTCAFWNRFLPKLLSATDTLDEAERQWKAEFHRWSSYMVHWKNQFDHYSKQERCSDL
# procedure.details: in vitro inhibition of acetylcholinesterase assay (modified Ellman)
# Format: biochemical, Male Wistar rat (corpora striata homogenate)
measure.name: IC50 (µM)
State just the number; it will be interpreted in µM.

Input line: What measured IC50 is associated with O=C(Oc1cccc(C2CCCN2Cc2ccncc2)c1)N1CCc2ccccc2C1 (centres unmarked) on acetylcholinesterase (Rattus norvegicus)?
Output line: 0.568

Input line: What measured IC50 is associated with CNC(=O)Oc1cccc(C2CCCN2CCN2CCOCC2)c1 (centres unmarked) [bis-fumarate] on acetylcholinesterase (Rattus norvegicus)?
Output line: 0.529

Input line: What measured IC50 is associated with CNC(=O)Oc1cccc(C2CCCN2Cc2ccncc2)c1 (centres unmarked) on acetylcholinesterase (Rattus norvegicus)?
Output line: 0.0244

Input line: What measured IC50 is associated with CNC(=O)Oc1cccc(C2CCC(=O)N2Cc2ccncc2)c1 (centres unmarked) on acetylcholinesterase (Rattus norvegicus)?
Output line: 1.44

Input line: What measured IC50 is associated with CNC(=O)Oc1cccc(C2CCC(=O)N2CCN2CCOCC2)c1 (centres unmarked) on acetylcholinesterase (Rattus norvegicus)?
Output line: 18.7
